The values you see were collected from ChEMBL document CHEMBL1123789.

- Measured target: GABA-A receptor; anion channel
- Test summary: Displacement of [3H]flunitrazepam from GABA-A benzodiazepine receptor of rat cerebral cortex membrane
- Assay type: tissue-based
Collected IC50 values appear next to each entry.

Some compounds with known IC50 results, for comparison:
CN1C(=O)CN=C(c2ccccc2F)c2cc([N+](=O)[O-])ccc21 : 3 nM
CCOC(=O)C1=CC2c3ccccc3NC2C=N1 (stereo unspecified) : 2.5 nM
O=C1Nc2ccccc2CN2Cc3[nH]c4ccccc4c3CC12 (stereo unspecified) : > 100000 nM
O=C1Nc2ccccc2Cn2cc3nc4ccccc4c-3cc21 : 6000 nM
O=c1[nH]c2ccccc2c(=O)n2cc3nc4ccccc4c-3cc12 : 23 nM

// next entry
What reported IC50 corresponds to O=C1Nc2ccccc2C(=O)N2Cc3[nH]c4ccccc4c3CC12 (stereo unspecified) on GABA-A receptor; anion channel? > 100000 nM
